Assay: Cytotoxicity against human HuH7 cells
Type: cell-based, Huh-7
Settings: HuH7 cells
PROPERTY: CC50

Query: Consider the compound COc1nc(N)nc2c1ncn2[C@@H]1O[C@H](COP(=O)(N[C@@H](C)C(=O)OC2CCCCC2)Oc2cccc3ccccc23)[C@@H](O)[C@@]1(C)O (stereo partly drawn) and give its recorded CC50.
Response: 6 µM

Query: Consider the compound COc1nc(N)nc2c1ncn2[C@@H]1O[C@H](CO)[C@@H](O)[C@@]1(C)O and give its recorded CC50.
Response: > 100 µM

Query: Consider the compound COc1nc(N)nc2c1ncn2[C@@H]1O[C@H](COP(=O)(N[C@@H](C)C(=O)OCC(C)(C)C)Oc2cccc3ccccc23)[C@@H](O)[C@@]1(C)O (stereo partly drawn) and give its recorded CC50.
Response: 6 µM

Each recorded value in this set is attributed to ChEMBL document CHEMBL2346618.
